- MEASURED_TARGET: Schistosoma mansoni thioredoxin glutathione reductase (TGR)
- METHOD_SUMMARY: qHTS Assay for the Inhibitors of Schistosoma Mansoni Peroxiredoxins; also: nearly all actives have a fitted effect of over 60% in size
- STATED_CONDITIONS: purified TGR, DTNB reduction, TNB absorbance 405 nm; series mostly up to 114 µM
Among all 360,000 compounds or so, about 11,000 (3.1%) were called active. Not shown: some 4% with an inconclusive outcome. Calls follow the shape of the dose curve; as a rule, active = well fitted inhibition curve with a large enough effect; inconclusive = small, poorly fitted or top-dose-only effect; inactive = no such curve, though single readings can be large or run the other way. The full list was thinned out, with actives kept by preference.
Outcomes: active, inactive

1. C=CCn1c(SCC(=O)NCc2ccccc2)nnc1-c1cc(Br)ccc1O; inactive
2. CC(C)N1C(=O)N(c2ccccc2)C(C)(O)CC1(C)C (stereo not given); inactive
3. CCOC(=O)c1ccccc1NC(=S)N1CCC(C(N)=O)CC1; inactive
4. O=C(CSc1nc2ccc(Nc3nc(N4CCOCC4)nc(N4CCOCC4)n3)cc2s1)NCc1ccco1; inactive
5. C=CCn1c(CSc2nc3ccccc3s2)nnc1SCC(=O)NCc1ccco1; active
6. COc1ccc(C)cc1N(C)C(=O)c1c(C)oc2ncnc(N3CCOCC3)c12; inactive
7. Cc1ccc(CCNC(=O)c2ccc3c(c2)N(Cc2cc(C)ccc2C)C(=O)c2ccccc2S3=O)cc1 (stereo not given); inactive
8. Cc1ccccc1CN1C[C@@H]2C[C@@H](c3ccc4nsnc4c3)N3CCC[C@@]23C1=O; inactive
9. COc1ccc(NC(=O)c2cc3cc(C)ccc3n2C)cc1; inactive
10. Cc1ccc(CN2CCC(CNC(=O)c3cnn(-c4ccc(C)cc4)c3C3CCN(C(=O)OC(C)(C)C)CC3)CC2)cc1; inactive
11. COc1ccc(C(=O)NCc2nnc(SCCOc3ccccc3)n2C)cc1; inactive
12. COc1ccc(S(=O)(=O)Nc2ccc3oc(C)c(C(C)=O)c3c2)cc1; inactive
13. CCn1c(=O)c(=O)[nH]c2c(=O)oc3ccc(S(=O)(=O)Nc4ccc(OC)cc4)cc3c21; active
14. CO/N=C(\C(=O)N[C@@H]1C(=O)N2C(C(=O)O)=C(COC(C)=O)CS[C@H]12)c1csc(N)n1 (stereo in doubt); inactive
15. Cc1ccccc1CN1C[C@@H]2C[C@@H](c3cn(C)nc3-c3ccccc3)N3CCC[C@@]23C1=O; active
16. Cc1oc2ccc(O)c(CN3CCCCC3)c2c1C(=O)Nc1cccc(C(F)(F)F)c1; inactive
17. Cc1ccsc1C1C(C#N)=C(N)OC2=C1C(=O)CC(C)(C)C2 (stereo not given); inactive
18. COc1ccc(C(=O)CSc2nnc(COc3ccccc3)n2Cc2ccco2)cc1; active
19. Cc1ccc(Sc2cc(C(=O)c3ccccc3C(=O)O)ccc2[N+](=O)[O-])cc1; inactive
20. Cc1nnc(SCC2=C(C(=O)O)N3C(=O)C(NC(=O)Cn4nc(C)c(Cl)c4C)C3SC2)s1 (stereo not given); active

---

- MEASURED_TARGET: Schistosoma mansoni thioredoxin glutathione reductase (TGR)
- METHOD_SUMMARY: qHTS Assay for the Inhibitors of Schistosoma Mansoni Peroxiredoxins; also: nearly all actives have a fitted effect of over 60% in size
- STATED_CONDITIONS: purified TGR, DTNB reduction, TNB absorbance 405 nm; series mostly up to 114 µM
In all, about 360,000 compounds went through this assay and about 11,000 (3.1%) were called active. Roughly 4% stayed inconclusive and do not appear here. The call rests on the fitted dose curve; in most records, active means well fitted inhibition curve with a large enough effect; inconclusive means small, poorly fitted or top-dose-only effect; inactive means no such curve, though single readings can be large or run the other way. The sample holds actives, similar compounds and a random draw of the others, so the mix is not that of the screen.
Outcomes: TRUE = active, FALSE = inactive

1. Cc1ccc(NC(=O)O/N=C/c2cccc([N+](=O)[O-])c2)cc1; FALSE
2. COc1ccc(C(=O)NC2CCCc3c2cnn3-c2cccc(C)c2C)c(OC)n1 (stereo not given); FALSE
3. CC(CCCc1ccccc1)NC(=O)c1nn(-c2ccc(Cl)cc2)nc1CO (stereo not given); FALSE
4. O=C(CSc1nccn1Cc1ccc(F)cc1)NCc1ccccc1; FALSE
5. CNc1ccc(-c2nc(-c3ccccc3C)no2)cc1[N+](=O)[O-]; FALSE
6. CCOc1cc(/C=C(\C#N)C(=O)Nc2ccccc2C)ccc1OCc1cc(=O)n2nc(CC)sc2n1; FALSE
7. COc1ccc(CNC(=O)COC(=O)/C=C/c2ccc(S(=O)(=O)N3CCOCC3)cc2)cc1; FALSE
8. CS/C(=C\[N+](=O)[O-])Nc1ccc(C)cc1; TRUE
9. Cc1ccc(/C=C/C(=O)OCC(=O)NCc2ccc(Cl)cc2)o1; TRUE
10. CSc1nc(-c2ccccc2Cl)nc2c1Cc1c(CO)cnc(C)c1O2; FALSE
